Target: T1, human C5 (human, UniProt P01031 19-673; P01031 678-1676, Beta and alpha chains are disulfide-linked and the protein is glycosylated.)
T1 construct: Either in-house recombinant C5 or plasma derived C5 (CALBIOCHEM) was used; also called recombinant human C5; plasma derived human C5
Test: Biacore, captured antibody, pH 7.4, 37 C;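 further: biacore binding response of anti-C5 antibody light chain variants captured on chip with human C5 injected, ACES running buffer containing 1.2 mM CaCl₂, parent light chain antibody set to 100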
MEASUREMENT_NAME: % binding (parent = 100) (%)
Please give a number only; it is taken to be in %.

Worked cases, answers included:
CFP0017 17L 94S (antibody, V domains shown) VH: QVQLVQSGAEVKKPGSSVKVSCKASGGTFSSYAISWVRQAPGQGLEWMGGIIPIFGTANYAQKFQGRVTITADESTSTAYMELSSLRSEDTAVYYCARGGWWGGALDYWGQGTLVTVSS VL: DIQMTQSPSSLSASVGDRVTITCRASQSIEDDLAWYQQKPGKAPKLLIYHASSLQSGVPSRFSGSGSGTDFTLTISSLQPEDFATYYCQQSDSSPLTFGQGTKVEIK :: -8.4
CFP0011 11L 31H (antibody, V domains shown) VH: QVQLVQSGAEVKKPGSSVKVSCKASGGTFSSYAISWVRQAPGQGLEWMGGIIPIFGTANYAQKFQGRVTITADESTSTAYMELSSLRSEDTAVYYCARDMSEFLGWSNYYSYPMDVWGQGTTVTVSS VL: DIQMTQSPSSLSASVGDRVTITCRASQSIEHDLAWYQQKPGKAPKLLIYHASSLQSGVPSRFSGSGSGTDFTLTISSLQPEDFATYYCQQSDNSPYTFGQGTKVEIK :: 100
CFP0021 21L 93R (antibody, V domains shown) VH: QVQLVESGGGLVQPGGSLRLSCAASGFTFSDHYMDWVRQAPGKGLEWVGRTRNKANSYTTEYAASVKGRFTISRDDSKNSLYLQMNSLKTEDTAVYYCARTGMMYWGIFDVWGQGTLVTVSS VL: DIQMTQSPSSLSASVGDRVTITCRASQSIEDDLAWYQQKPGKAPKLLIYHASTLQSGVPSRFSGSGSGTDFTLTISSLQPEDFATYYCQQHDRYPLTFGQGTKVEIK :: 5.2
CFP0015 15L 96P (antibody, V domains shown) VH: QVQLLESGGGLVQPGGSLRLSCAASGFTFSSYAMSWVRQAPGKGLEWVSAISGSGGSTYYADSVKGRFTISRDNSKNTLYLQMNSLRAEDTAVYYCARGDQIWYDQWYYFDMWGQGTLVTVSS VL: DIQMTQSPSSLSASVGDRVTITCRASQSIEDDLAWYQQKPGKAPKLLIYEASNLQSGVPSRFSGSGSGTDFTLTISSLQPEDFATYYCQQYDSSPPTFGQGTKVEIK :: 49

Now take the following binder into account.
Asked: Hello, please tell me recorded % binding (parent = 100) for this one: CFP0015 15L 94W (antibody, V domains shown) VH: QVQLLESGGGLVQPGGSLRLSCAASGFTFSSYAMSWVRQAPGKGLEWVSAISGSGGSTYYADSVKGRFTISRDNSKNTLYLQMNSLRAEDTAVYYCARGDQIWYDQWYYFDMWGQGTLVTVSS VL: DIQMTQSPSSLSASVGDRVTITCRASQSIEDDLAWYQQKPGKAPKLLIYEASNLQSGVPSRFSGSGSGTDFTLTISSLQPEDFATYYCQQYDSWPLTFGQGTKVEIK
Given back: 4.5
